tested on: NCI-H2126; test: relative viability (nuclei count vs DMSO), 5 days (fraction); higher = more cells survive; conditions: first compound 0.5 µM
Each entry below carries its recorded relative viability.
observable: relative viability

>>> measured_result("COc1cc2nccc(Oc3ccc(NC(=O)Nc4cc(C)on4)c(Cl)c3)c2cc1OC [Tivozanib] + CC(C)C[C@H](NC(=O)[C@H](Cc1ccccc1)NC(=O)c1cnccn1)B(O)O [Bortezomib] (partner 0.002 µM)")
1.11
>>> measured_result("COc1cc2nccc(Oc3ccc(NC(=O)Nc4cc(C)on4)c(Cl)c3)c2cc1OC [Tivozanib] + CC(=O)c1c(C)c2cnc(Nc3ccc(N4CCNCC4)cn3)nc2n(C2CCCC2)c1=O [Palbociclib] (partner 0.5 µM)")
0.371
>>> measured_result("Nc1ccn([C@@H]2O[C@H](CO)[C@@H](O)[C@@H]2O)c(=O)n1 [Cytarabine] + O=C(c1cc(Cc2n[nH]c(=O)c3ccccc23)ccc1F)N1CCN(C(=O)C2CC2)CC1 [Olaparib] (partner 8 µM)")
0.515
>>> measured_result("COc1cc2nccc(Oc3ccc(NC(=O)Nc4cc(C)on4)c(Cl)c3)c2cc1OC [Tivozanib] + CS(=O)(=O)N1CCN(Cc2cc3nc(-c4cccc5[nH]ncc45)nc(N4CCOCC4)c3s2)CC1 [Pictilisib] (partner 1 µM)")
0.469
